// data source = PubChem BioAssay AID1117265

Target: Trace amine-associated receptor 1 (Homo sapiens)
Test: human TAAR1 antagonists, late-stage follow-up, cell-based, fluorescence, MedChem round 2 (AID 1117265)
Conditions: TAAR1-expressing cells, antagonist mode
Active and inactive are the calls of the source. How the calls were made is not given here.
recorded.metric: IC50

# input compound: COc1cc(C(=O)CCN2CCC(c3ccccc3)C2)cc(OC)c1OC (configuration not stated) ; wanted: its IC50
419 nM

Then this compound: `N#Cc1c(C(F)(F)F)cc(-c2ccc(Cl)cc2)nc1SCC(=O)Nc1ncccn1`
3.74 nM

Then this compound: Cc1ccc(C(=O)CCN2CCC(c3ccccc3)C2)cc1 (configuration not stated)
672 nM

Then this compound: O=C(CCN1CCC(c2ccccc2)C1)c1ccccc1 (configuration not stated)
765 nM

Then this compound: `N#Cc1c(C(F)(F)F)cc(-c2ccc(Cl)cc2)nc1SCC(=O)N1CCCC1`
1070 nM

Then this compound: `N#Cc1c(C(F)(F)F)cc(-c2ccc(Cl)cc2)nc1SCC(=O)N1CCCCCC1`
> 29900 nM (inactive)

Then this compound: CC(CN1CCCC1Cc1ccccc1)C(=O)c1ccc2c(c1)OCCO2 (configuration not stated)
2960 nM
